Assay: Metabolic stability in mouse liver microsome assessed as parent compound remaining measured at 60 mins by LCMS/MS analysis
Assay type: ADME
Conditions: liver microsomes, read-out: Stability
Labelling field: enter Fulfilled if recorded remaining at 1 h is less than 30%. Enter Not fulfilled if it equals or exceeds that cut-off.

> print(dat)
                               smiles.input  discrete.label
1  C=CCn1c(=O)c2cnc(Nc3ccc(N4CCN(C)CC4)cc3)nc2n1-c1cccc(-c2cccc(F)n2)n1       Fulfilled
2  C=CCn1c(=O)c2cnc(Nc3ccc(N4CCN(CCN(C)C)CC4)cc3)nc2n1-c1cccc(-c2cnccn2)n1   Not fulfilled
3  C=CCn1c(=O)c2cnc(Nc3ccc(C4CCN(C)CC4)cc3)nc2n1-c1cccc(-c2cccnn2)n1   Not fulfilled

Threshold test, remaining at 1 h < 30%: "C=CCn1c(=O)c2cnc(Nc3ccc(N4C5CCC4CN(C)C5)cc3)nc2n1-c1cccc(-c2cccnn2)n1" Fulfilled

Another molecule: "C=CCn1c(=O)c2cnc(Nc3ccc(N4CCN(C)CC4)cc3)nc2n1-c1cccc(C(C)(C)O)n1" Fulfilled

Another molecule: "C=CCn1c(=O)c2cnc(Nc3ccc(N4CCN(C)CC4)cc3)nc2n1-c1cccc(-c2cnccn2)n1" Not fulfilled
